Taken from PubChem BioAssay (NCI).

system: CAKI-1 renal; assay: NCI tumour cell line growth inhibition, 48 h
Measured Parameter: TGI (µM)
Just the number in µM, nothing appended.

// worked examples, TGI included
• C/C(=N\NC(=O)c1cccc(S(=O)(=O)N2CCN(C)CC2)c1)c1cc(Cl)ccc1O = 27.5
• COc1cc(/C=C/C(=O)c2ccc(F)cc2)ccc1OCCCCOc1cc2c(cc1OC)C(=O)N1CCCC1C=N2 (stereo unspecified) = 25.6
• COc1c(N2CCCCC2)c2c(=O)c3ccccc3oc2c2cc(C)oc12 = 37.3

INPUT: What value of TGI has been reported for the following compound? CSC1=C(C(=O)N(COCC[Si](C)(C)C)c2ccccc2Br)CCC(C(C)(C)C)C1 (stereo unspecified)
OUTPUT: 18.1

INPUT: Input CC(C)C(C)C(O)C(O)C(C)C1CCC2C3COC(=O)C4CC(O)C(O)CC4(C)C3CCC12C (stereo unspecified)
OUTPUT: 26.3

INPUT: Input CN(C)CCn1c2c(c3ccccc31)CCc1ccccc1-2
OUTPUT: 29.4

====

system: M14 melanoma; experiment: NCI tumour cell line growth inhibition, 48 h
Measured Parameter: TGI

- COc1cccc(-c2cc(C(=O)Nc3ccc(Cl)cc3)nc(N)n2)c1: > 100 µM

Let us examine a further case.
INPUT: Find the measured TGI: item SCc1ccc(-c2ccc(CS)cc2)cc1 , target or system M14 melanoma.
OUTPUT: 29.8 µM

====

Measured TGI, listed per entry for reference.
system: SN12C renal; test: NCI tumour cell line growth inhibition, 48 h

• COC(=O)CCC(=O)Nc1cccc(C(F)(F)F)c1 = > 100 µM
• Cc1nc2ccccc2c(=O)n1Nc1ccc(C(=O)O)cc1 = > 100 µM
• Cc1cc(N2CCCCC2)nc(NCc2cc(Nc3ccnc4cc(Cl)ccc34)ccc2F)n1 = 3.62 µM
• Clc1cc(Cl)cc(C2SCc3nc4ccccc4n32)c1 (stereo unspecified) = 29.9 µM
• CC(=O)N(CN1C(=O)CCC1C(=O)O)c1ccc(C)cc1 (stereo unspecified) = > 100 µM

INPUT: Find the measured TGI: item CC/C=C\C[C@H](O)C/C=C1/C(=O)C=C[C@@H]1C/C=C\CCCC(=O)OCCS(=O)(=O)c1ccccc1 , target or system SN12C renal.
OUTPUT: 19.1 µM

====

system: MCF7 breast; assay: NCI tumour cell line growth inhibition, 48 h; in the data active = GI50 below about 0.43 µM; inactive = the rest
Returns: one label drawn from active, inactive

The following compounds have reported results that may help.
• C=C(c1ccc(OC)c(/C=C/C(=O)c2cc(OC)c(OC)c(OC)c2)c1)c1cc(OC)c(OC)c(OC)c1 = inactive
• CN(C)c1ccc(/C=N/NC(=O)CSc2nc3sc4c(c3c(=O)n2-c2ccccc2)CCCCC4)cc1 = inactive
• Cc1cc(C)nc(NS(=O)(=O)c2ccc(Nc3nc4nc(NCc5ccccc5)nc(-c5ccc(O)cc5)c4c(=O)[nH]3)cc2)n1 = inactive
• Nc1c(C(=O)c2cccc(C(O)(CO)CO)c2)cnn1-c1ccc(F)cc1 = inactive

Next compound, please.
INPUT: Query: recorded result category for COc1ccc(NC(=O)COc2ccccc2)c(C(N)=O)c1 in this test
OUTPUT: inactive

====

system: LXFL 529 NSCLC; experiment: NCI tumour cell line growth inhibition, 48 h
Measured TGI, listed per entry for reference.

// worked examples, TGI included
- O=C1C2c3[nH]c4ccccc4c3C3CCC(c4ccccc4)CC3C2C(=O)N1c1ccccc1 (stereo not drawn): > 100 µM
- COc1cc(C(=O)O)cc2c1[nH]c1ccccc12: > 25 µM
- O=C(/C=C/c1ccc[nH]1)c1ccccc1: > 100 µM
- COc1ccc(C(=O)NNC(=O)c2nsc3ccccc23)cc1: > 100 µM
- CCN1C(=O)/C(=C\c2coc3ccccc3c2=O)SC1=S: > 100 µM
- CC[C@@]1(O)C(=O)OCc2c1cc1n(c2=O)Cc2cc3c([N+](=O)[O-])c(O)ccc3nc2-1: > 100 µM
- CN1C(=O)C(C)(C)NS1(=O)=O: > 100 µM
- COC(=O)C12OCC34C(CC5C(C)C6=CC(=O)OC6=CC5(C)C3C(O)C1O)OC(=O)C(OC(C)=O)C24 (stereo not drawn): 31.5 µM

INPUT: What value of TGI has been reported for the following compound? CC(C)(C)c1cc(O)c2c(c1O)C(=O)CCC2
OUTPUT: > 100 µM

INPUT: Input O=C1C[C@@H]2[C@@H](C=CC23CC3)N1O
OUTPUT: > 100 µM

====

tested on: XF 498 CNS; assay: NCI tumour cell line growth inhibition, 48 h
Measured Parameter: TGI

* CN1C(=O)C(C)(C)NS1(=O)=O | > 100 µM
* Cn1ncc2c(=O)[nH]c(-c3ccccc3)nc21 | > 100 µM
* Cc1ccc([N+]2=NC(c3ccc([N+](=O)[O-])cc3)=NN(c3ccccc3)C2)cc1 | > 100 µM
* CC(C)(c1ccccc1)c1ccc(Oc2ccc3c(c2)-c2nc-3nc3[nH]c(nc4nc(nc5[nH]c(n2)c2ccc(Oc6ccc(C(C)(C)c7ccccc7)cc6)cc52)-c2cc(Oc5ccc(C(C)(C)c6ccccc6)cc5)ccc2-4)c2ccc(Oc4ccc(C(C)(C)c5ccccc5)cc4)cc32)cc1 | > 100 µM

INPUT: Find the measured TGI: item COC(=O)c1ccc(CS(=O)(=O)c2ccccc2)cc1 , target or system XF 498 CNS.
OUTPUT: > 100 µM

INPUT: Input O=S(Cc1cnc2ccccc2c1)c1nc2ccccc2nc1-c1cccs1 (stereo not drawn)
OUTPUT: 16.9 µM

====

tested on: SK-MEL-5 melanoma; experiment: NCI tumour cell line growth inhibition, 48 h
Measured Parameter: log10 TGI (log10 of the value in µM)
Log scale reminder: TGI in µM, then log10 taken.

- COc1ccc2c3c(ccc2c1)NC(C(=O)O)CC3 (centres undefined): 1.81
- S=P(C1CCCCC1)(C1CCCCC1)C(c1cccnc1)N1CCCC1 (centres undefined): 1.50
- OCCNC(=S)Nc1ccc(-c2nc(N3C[C@H]4CC[C@@H](C3)O4)c3cccn3n2)cc1: -0.19
- CCCCC1CCCCCCc2[nH]c(/C=C3\N=C(c4ccc[nH]4)C=C3OC)cc21 (centres undefined): -0.97
- CC(/C=C/C=C\C=C\C=C(/C)C(=O)NC(C)CO)=C\C(C)C(O)/C(C)=C/C(C)CCc1ccccc1 (centres undefined): 1.19

INPUT: What value of log10 TGI has been reported for the following compound? NC(CCCNc1ccc(O)cc1)C(=O)O (centres undefined)
OUTPUT: 1.80

INPUT: Input COc1c(N2CCCCC2)c2c(=O)c3ccccc3oc2c2cc(C)oc12
OUTPUT: 1.61

INPUT: Input COc1ccc(OC)c2sc(N3C(=O)/C(=C/c4ccc(SC)cc4)N=C3c3ccccc3)nc12
OUTPUT: 1.53

INPUT: Input Clc1cc(Cl)cc(C2SCc3nc4ccccc4n32)c1 (centres undefined)
OUTPUT: 1.41

INPUT: Input ClCCN(CC#CCCCC#CCN(CCCl)CCCl)CCCl
OUTPUT: 1.39

INPUT: Input COc1ccc2c(c1)O/C(=C\c1ccc([N+](=O)[O-])o1)C2=O
OUTPUT: 0.49

INPUT: Input CC1(OCc2ccccc2)C(=O)N2C1N(C(=O)OCc1ccccc1)CC2(C)C (centres undefined)
OUTPUT: 1.53

INPUT: Input O=C1C2=C(C(=O)c3c(O)ccc(O)c31)N(c1cccnc1)Cc1ccccc1O2
OUTPUT: 0.48

====

tested on: NCI-H460 lung
Measured GI50, listed per entry for reference.

// worked examples, GI50 included
• Cc1cc(C)nc(NS(=O)(=O)c2ccc(Nc3nc4nc(NCc5ccccc5)nc(-c5ccc(O)cc5)c4c(=O)[nH]3)cc2)n1 = 49900 nM
• COc1cc2c(cc1OCCCOc1cc3c(cc1OC)C(=O)N1CC(F)(F)C[C@H]1C=N3)N=C[C@@H]1CC(F)(F)CN1C2=O = 55.1 nM
• CS(=O)(=O)c1nccc(-c2c(-c3cccc(OCc4ccccc4)c3)nc3sccn23)n1 = > 83500 nM
• O=c1[nH]ccc2nc(N3CCC(O)CC3)nc(Nc3ccc(N4CCOCC4)cc3)c12 = 2380 nM

INPUT: What value of GI50 has been reported for the following molecule? C=CC1CC12C(=O)C1OC2(C)C2C(=O)c3c(O)cccc3C(=O)C12 (stereo not drawn)
OUTPUT: 33800 nM

INPUT: Input Nc1c(C(=O)c2cccc(C(O)(CO)CO)c2)cnn1-c1ccc(F)cc1
OUTPUT: > 25000 nM

INPUT: Input COc1ccc(/C=C(/C(=O)N2CCN(c3ccc(C)cc3)CC2)c2cc(OC)c(OC)c(OC)c2)cc1N
OUTPUT: 347 nM

INPUT: Input Cc1ccccc1NC(=O)N/C(N)=N/c1nc(C)c(C)s1
OUTPUT: 376 nM
